- ASSAYED TARGET: UniProt P00176
- Sequence (P00176 whole entry): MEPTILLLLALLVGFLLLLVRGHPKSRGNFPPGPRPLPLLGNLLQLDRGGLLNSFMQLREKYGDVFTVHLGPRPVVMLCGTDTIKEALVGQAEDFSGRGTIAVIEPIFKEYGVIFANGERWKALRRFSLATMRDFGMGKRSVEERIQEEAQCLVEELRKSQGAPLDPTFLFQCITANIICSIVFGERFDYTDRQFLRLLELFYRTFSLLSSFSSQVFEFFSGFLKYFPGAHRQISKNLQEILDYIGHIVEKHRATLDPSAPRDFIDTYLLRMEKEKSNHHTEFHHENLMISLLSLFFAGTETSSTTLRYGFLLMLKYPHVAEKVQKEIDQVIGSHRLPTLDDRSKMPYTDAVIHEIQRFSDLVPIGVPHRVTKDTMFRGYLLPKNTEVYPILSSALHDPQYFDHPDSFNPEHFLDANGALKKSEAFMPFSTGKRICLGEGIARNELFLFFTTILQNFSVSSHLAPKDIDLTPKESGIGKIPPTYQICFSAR
- ASSAY TEXT: Comparison of metabolite formation by cDNA-expressed CYP2B1 and CYP2B6
- Assay type: in vitro ADME
- ASSAY SETUP: 10 nM cDNA-expressed CYP2B1, 10 μM substrate, 30 min
REPORTED PROPERTY: Metabolite formation by CYP2B1 (in words)

INPUT SMILES: Nc1ccc(Cl)cc1[C@](O)(C#CC1CC1)C(F)(F)F
VALUE OBSERVED: displayed activity

INPUT SMILES: Nc1ccc(Cl)cc1[C@@](O)(C#CC1CC1)C(F)(F)F
VALUE OBSERVED: displayed activity

---

- ASSAYED TARGET: CYP2B6 (Homo sapiens)
- Sequence (P20813 1-491): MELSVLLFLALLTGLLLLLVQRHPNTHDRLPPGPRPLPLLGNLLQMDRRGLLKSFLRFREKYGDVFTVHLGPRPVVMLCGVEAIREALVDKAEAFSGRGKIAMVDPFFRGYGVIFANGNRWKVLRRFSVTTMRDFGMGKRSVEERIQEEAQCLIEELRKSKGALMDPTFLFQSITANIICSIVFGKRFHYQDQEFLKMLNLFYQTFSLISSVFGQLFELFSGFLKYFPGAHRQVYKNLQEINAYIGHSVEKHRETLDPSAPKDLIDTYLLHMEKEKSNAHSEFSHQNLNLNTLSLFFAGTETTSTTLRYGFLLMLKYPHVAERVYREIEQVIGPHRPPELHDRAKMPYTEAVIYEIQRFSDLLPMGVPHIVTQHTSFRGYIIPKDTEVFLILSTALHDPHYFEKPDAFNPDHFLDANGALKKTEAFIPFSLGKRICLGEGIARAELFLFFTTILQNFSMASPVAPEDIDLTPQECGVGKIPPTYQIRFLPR
- ASSAY TEXT: Product formation kinetic analysis
- Format: in vitro ADME
- ASSAY SETUP: cDNA-expressed CYP2B6
Reported Km values for a set of molecules

MOLECULE: O=C1CC(C#CC2CC2)(C(F)(F)F)c2cc(Cl)ccc2N1 (stereo not drawn)
ASSAYED TARGET: CYP2B6 (Homo sapiens)
Km: 14 µM

MOLECULE: O=C1Nc2ccc(Cl)cc2[C@@](C#CC2CC2)(C(F)(F)F)O1 [EFV, reference compound]
ASSAYED TARGET: CYP2B6 (Homo sapiens)
Km: 3.6 µM

MOLECULE: CC1Nc2ccc(Cl)cc2C(C#CC2CC2)(C(F)(F)F)O1 (stereo not drawn)
ASSAYED TARGET: CYP2B6 (Homo sapiens)
Km: ~1 µM
